Listed here: items and their measured IC50.
# tgt: Proto-oncogene tyrosine-protein kinase Src (Homo sapiens)
# Sequence (P12931 2-536 limits assumed): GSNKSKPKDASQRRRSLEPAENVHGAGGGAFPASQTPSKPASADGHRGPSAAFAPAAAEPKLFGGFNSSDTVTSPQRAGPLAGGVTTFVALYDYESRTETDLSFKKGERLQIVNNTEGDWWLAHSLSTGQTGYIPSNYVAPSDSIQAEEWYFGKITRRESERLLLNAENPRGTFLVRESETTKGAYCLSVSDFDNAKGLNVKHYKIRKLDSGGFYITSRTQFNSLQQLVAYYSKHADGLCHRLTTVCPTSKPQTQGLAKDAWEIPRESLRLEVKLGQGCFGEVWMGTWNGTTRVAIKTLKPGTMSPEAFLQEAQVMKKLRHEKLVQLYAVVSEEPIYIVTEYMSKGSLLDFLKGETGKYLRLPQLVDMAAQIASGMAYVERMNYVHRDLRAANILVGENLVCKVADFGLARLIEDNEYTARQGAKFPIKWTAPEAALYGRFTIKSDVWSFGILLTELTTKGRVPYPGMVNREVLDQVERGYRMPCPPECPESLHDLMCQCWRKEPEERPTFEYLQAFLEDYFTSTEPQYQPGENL
Answer format: numeric, µM implied, no suffix.

As a guide, the following entries are already answered.
molecule	IC50 (µM)
O=P(O)(O)Oc1ccc2ccccc2c1	1000
O=P(O)(O)Oc1ccc(SC(F)(F)F)cc1	1200
CC(=O)c1ccc2ccccc2c1OP(=O)(O)O	3500
O=[N+]([O-])c1ccc(OP(=O)(O)O)cc1 [p-NITROPHENYLPHOSPHATE]	1000

Request: Please supply the value of reported IC50 for the item O=C(O)c1ccccc1OP(=O)(O)O [FOSFOSAL]
Result: 2000

====

Observed pIC50, system Proto-oncogene tyrosine-protein kinase Src (Homo sapiens).
Hey, just a heads up that pIC50 is the negative log base 10 of the concentration in molar.

compound	pIC50
Cc1ccc(OP(=O)(O)O)cc1	2.70

Request: GET pIC50 where system = Proto-oncogene tyrosine-protein kinase Src (Homo sapiens) and item = CCCOc1ccc(C(O)P(=O)(O)O)cc1 (centres undefined)
Result: 2.62

Request: # assay system Proto-oncogene tyrosine-protein kinase Src (Homo sapiens): give pIC50 of `Nc1ccc(OP(=O)(O)O)cc1`
Result: 3.22

Request: Lab note: Proto-oncogene tyrosine-protein kinase Src (Homo sapiens) assay, enter pIC50 for `Cc1cccc(OP(=O)(O)O)c1` here
Result: 2.40

Request: Give Proto-oncogene tyrosine-protein kinase Src (Homo sapiens) pIC50 for the following compound: O=C(NCc1ccccc1)P(=O)(O)O [(BENZYLAMINO)CARBONYLPHOSPHONIC ACID]
Result: 2.36

Request: Output reported pIC50 of the compound `CC(C)OP(=O)(O)Oc1ccccc1C=O` on Proto-oncogene tyrosine-protein kinase Src (Homo sapiens).
Result: 2.68

Request: Write down the reported pIC50 (system: Proto-oncogene tyrosine-protein kinase Src (Homo sapiens)) of `O=P(O)(O)Oc1cccc2ccccc12`
Result: 3.00
